Target: Apelin receptor (Homo sapiens)
Experiment: potency against CXCR6 with APJ panel – cell-based, beta-arrestin, DiscoveRx, uHTS hits, dose response (AID 624129)
Conditions: CXCR6 beta-arrestin (DiscoveRx) antagonist cell assay, APJ, run 3, dose range 1
Would you mind classing the entries by IC50? Ranges: low bracket = under 5 µM, middle bracket = from 5 µM up to 20 µM, high bracket = 20 µM and over

*Q* Band of COc1ccc(-n2c(O)c(/C=N/Nc3nc(C)cc(C)n3)c3ccccc3c2=O)cc1OC ?
*A* high bracket

*Q* Record NC(=S)N/N=C/c1ncc(C(F)(F)F)cc1Cl — which class?
*A* middle bracket

*Q* Hi, small favor: classify C=C(CN(C)C)C(=O)c1ccc(C)cc1C by its IC50 when you get a moment.
*A* high bracket

*Q* Which bin, given its IC50, does O=c1cc(CSc2ccc(Cl)cc2)nc(-c2ccccn2)[nH]1 occupy?
*A* low bracket

*Q* Please classify: N#CC(C#N)=C1C=CC=CN1/C(=C\c1ccco1)C(=O)c1ccccc1
*A* low bracket

*Q* Which bin should I file O=[N+]([O-])c1c(Nc2ccccc2O)cc(Cl)c2nonc12 under?
*A* high bracket
